- Tested on: NCI-H460 lung
A correct response names exactly one class from YES = active, NO = inactive

For CC(C)=CC1=C2C3=C(C(=O)C4(O)Oc5c(C)c6c7c(c5OC24C)[C@@H](C)CC[C@@H]7[C@@H](C)C[C@H]6C=C(C)C)C(C)CCC3C(C)C1 (stereo partly specified) , what call appears in the results of this test?
NO

For `O=C1CCc2c(sc3[nH]c(=S)n(Cc4ccc(Cl)cc4)c(=O)c23)C1` , what call appears in the results of this test?
YES

For `O=C1c2ccccc2-c2c1c1ccccc1c(=O)n2CCCn1ccnc1` , what call appears in the results of this test?
NO

For `Cc1ccc(O)c(NC(=O)c2ccc(CNc3ccnc(C(F)(F)F)c3)cc2)c1` , what call appears in the results of this test?
NO

For `OCC#Cc1ccccc1C#CCCCCCC#Cc1ccccc1C#CCO` , what call appears in the results of this test?
NO

For `N#C/C(=C\c1ccc(Br)cc1)n1nnc2ccc(F)cc21` , what call appears in the results of this test?
NO

* * *

- System: UO-31 renal
- assay.comment: NCI tumour cell line growth inhibition, 48 h; in the data active = GI50 below about 0.43 µM; inactive = the rest
A correct response names exactly one class from true = active, false = inactive

Solved cases below.
For `C=C1C(=O)O[C@H]2[C@H]1CC/C(Cn1cc(-c3ccccc3C(F)(F)F)nn1)=C\CC[C@@]1(C)O[C@@H]21` , what call appears in the results of this test?
false

For `CCCCCCCc1cc2c3c(nc4ccccc42)C(=O)c2cccnc2-c3n1` , what call appears in the results of this test?
false

For `Cc1ncc(C(=O)Nc2ccc(CN3CCN(C)CC3)c(C(F)(F)F)c2)cc1C#Cc1cnc(N)cc1C#N` , what call appears in the results of this test?
true

For `Cc1ccc(Cl)cc1NC(=O)c1sc2nc3c(cc2c1N)C(=O)CCC3` , what call appears in the results of this test?
false

For `OCC#Cc1ccccc1C#CCCCCCC#Cc1ccccc1C#CCO` , what call appears in the results of this test?
false

New cases:
For NCCCNCCCCNC(=O)C(O)NC(=O)CCCCCCN=C(N)N (configuration not stated) , what call appears in the results of this test?
false

For `Cn1cc(-c2ccc(-c3ccc(C4=NC5(CC5)C(=O)N4C[C@@H]4CCN(C(=O)C5CC5)C4)cc3)cc2)cn1` , what call appears in the results of this test?
false

* * *

- Tested on: OVCAR-4 ovarian
- assay.comment: NCI tumour cell line growth inhibition, 48 h; in the data active = GI50 below about 0.43 µM; inactive = the rest
A correct response names exactly one class from YES = active, NO = inactive

Solved cases below.
For `O=C(/C=C/c1ccc(C(F)(F)F)cc1)c1ccc(Nc2nc(NCCO)nc(Nc3ccc(Cl)cc3)n2)cc1` , what call appears in the results of this test?
NO

For `CCN(CC)c1ccc(C(=O)c2ccc(N(CC)CC)cc2)cc1` , what call appears in the results of this test?
NO

Please turn your attention to the following entry.
For `Cc1ccc(Cl)cc1NC(=O)c1sc2nc3c(cc2c1N)C(=O)CCC3` , what call appears in the results of this test?
NO

* * *

- Test system: RPMI-8226 leukemia
- assay.comment: NCI tumour cell line growth inhibition, 48 h; in the data active = GI50 below about 0.43 µM; inactive = the rest
A correct response names exactly one class from active, inactive

For `O=C1C(=O)c2cccnc2-c2ncccc21` , what call appears in the results of this test?
active

For `COc1cc2c(cc1OCCCC(=O)Nc1ccc3ccc4cccc5ccc1c3c45)N=C[C@@H]1CCCN1C2=O` , what call appears in the results of this test?
active

Please turn your attention to the following entry.
For `O=C(OC[C@H]1O[C@H](OC(=O)c2cc(O)c(O)c(OC(=O)c3cc(O)c(O)c(O)c3)c2)[C@H](OC(=O)c2cc(O)c(O)c(OC(=O)c3cc(O)c(O)c(O)c3)c2)[C@@H](OC(=O)c2cc(O)c(O)c(OC(=O)c3cc(O)c(O)c(O)c3)c2)[C@@H]1OC(=O)c1cc(O)c(O)c(OC(=O)c2cc(O)c(O)c(O)c2)c1)c1cc(O)c(O)c(OC(=O)c2cc(O)c(O)c(O)c2)c1` , what call appears in the results of this test?
inactive
